Hello, the source for this data is the supplement of paper PMC6555819, in case you need it.

- Test system: RARg:RXRa (NR concentration 270 nM, RXRa partner concentration 90 nM)
- Protocol: PBM binding z-score (relative to random genomic background probes); higher = stronger binding; sequences stand for … in GC…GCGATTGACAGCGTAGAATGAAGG
This listing pairs sequences with measured PBM binding z-score.
Measurement Type: PBM binding z-score

Macromolecule Sequence: CAAACTAGGTCATCCAGGACAGTGAATACATTGA
Measurement Type: PBM binding z-score
Recorded Result: 4.15

Macromolecule Sequence: TGAATGAGGTTAAAGCTCAGGGAACGTGGCGTCG
Measurement Type: PBM binding z-score
Recorded Result: 1.9

Macromolecule Sequence: CCTACTGGGCCATCACGTCATTGATATCAACGTT
Measurement Type: PBM binding z-score
Recorded Result: 0.0905

Macromolecule Sequence: TCTTTTAGATCAAAGGTTAAGAAAGCCGAAGCCT
Measurement Type: PBM binding z-score
Recorded Result: 1.81

Macromolecule Sequence: TCAATTAGTTGATTAGGGCAACCGAAACAGCGGA
Measurement Type: PBM binding z-score
Recorded Result: 0.298

Macromolecule Sequence: TCTATTAGTTGATTACGGCAACCGAAACAGCGGA
Measurement Type: PBM binding z-score
Recorded Result: 0.252

Macromolecule Sequence: CAAACTAGGTCGAAGGTCAAAGTCGAGCCAACCA
Measurement Type: PBM binding z-score
Recorded Result: 5.7

Macromolecule Sequence: CCAACTAGGTCAAAGGTCAAAGTCGAGCCAACCA
Measurement Type: PBM binding z-score
Recorded Result: 9.03

Macromolecule Sequence: CAAACTAGGACAAAGGTCAAAGTCGAGCCAACCA
Measurement Type: PBM binding z-score
Recorded Result: 6.7

Macromolecule Sequence: TGAATGAGGTTAAAGTTCAGGGAACGTGGCGTCG
Measurement Type: PBM binding z-score
Recorded Result: 4.76

Macromolecule Sequence: CCTAGTTGGTCAATGTCACACACGCTATAGGTAC
Measurement Type: PBM binding z-score
Recorded Result: 1.07

Macromolecule Sequence: CGAACTAGGTCATGCAGGACAGTGAATACATTGA
Measurement Type: PBM binding z-score
Recorded Result: 3.87

Macromolecule Sequence: ATCGAAAGGTCGAAGGTGTGTATACCCACCCGAA
Measurement Type: PBM binding z-score
Recorded Result: 3.83

Macromolecule Sequence: TCTAGCAGGACAGAGGGTCACTCAAGAGGTACGG
Measurement Type: PBM binding z-score
Recorded Result: 2.39

Macromolecule Sequence: TGAATGGGGTTAAAGATCAGGGAACGTGGCGTCG
Measurement Type: PBM binding z-score
Recorded Result: 3.19

Macromolecule Sequence: GATACAGGGTCAGCTAGAAGCCAGAGTATGGAAA
Measurement Type: PBM binding z-score
Recorded Result: 4.59

Macromolecule Sequence: GCTTACGGGTTAAAGGTTATAGCATGAATAGAAT
Measurement Type: PBM binding z-score
Recorded Result: 3.66

Macromolecule Sequence: CCTGCTAGGTCATGATCAGCTAATCTACAGTATG
Measurement Type: PBM binding z-score
Recorded Result: 3.89

Macromolecule Sequence: TGAATGAGGTTAAAGATCAGTGAACGTGGCGTCG
Measurement Type: PBM binding z-score
Recorded Result: 2.48

Macromolecule Sequence: GCGACTGGGGCAAAGCAGGTTACCATCAGGTTGG
Measurement Type: PBM binding z-score
Recorded Result: 0.227

Macromolecule Sequence: CTCTAAAGGTCGTGCTCAGGTGAGTATACCAAAC
Measurement Type: PBM binding z-score
Recorded Result: 5.08

Macromolecule Sequence: GGAACGAGGGCATTCGAGTTGATAGAATGGCGAT
Measurement Type: PBM binding z-score
Recorded Result: 1.01

Macromolecule Sequence: ATCGAAAGGTCGTGAGGGGAGTATACAGAAAGGC
Measurement Type: PBM binding z-score
Recorded Result: 4.4

Macromolecule Sequence: GCATATAAGTAATACAAGGTGAAAGTCCGATTGT
Measurement Type: PBM binding z-score
Recorded Result: 0.308

Macromolecule Sequence: CGAACTAGGGCATCCAGGACAGTGAATACATTGA
Measurement Type: PBM binding z-score
Recorded Result: 0.674

Macromolecule Sequence: TTACCAAGGTGAAAGGTCGTTCATGCACGCCTTG
Measurement Type: PBM binding z-score
Recorded Result: 4.33
